System: SMMC-7721
Assay: Cell cycle arrest in human SMMC7721 cells assessed as accumulation at G0/G1 phase at 1 uM incubated for 48 hrs by propidium iodide staining based flow cytometry (Rvb=77%)
Assay type: functional
Readout: Activity (%)
Provide the reading as a plain figure in %.

Molecular string	Unit label	Activity
Cn1c(SCc2ccc(C(=O)Nc3ccccc3N)cc2)nc2cc(Br)ccc2c1=O	%	56.35
Nc1ccc(F)cc1NC(=O)c1ccc(CNC(=O)/C=C/c2cccnc2)cc1	%	76.44
CC(=O)Nc1ccc(C(=O)Nc2ccccc2N)cc1	%	75.86
Nc1ccccc1NC(=O)c1ccc(CNC(=O)OCc2cccnc2)cc1	%	76.1
CCn1c(SCc2ccc(/C=C/C(=O)Nc3ccccc3N)cc2)nc2cc(OC)ccc2c1=O	%	50.71

## Task Answer with the recorded Activity for the molecule listed here: COc1ccc2c(=O)n(-c3ccccc3Cl)c(SCc3ccc(C(=O)Nc4ccccc4N)cc3)nc2c1
## Result 34.49

## Task Determine its reported Activity: COc1ccc2c(=O)n(C)c(SCc3ccc(C(=O)Nc4ccccc4N)cc3)nc2c1
## Result 58.1
